- System: Escherichia coli
- Experiment Summary: Antibacterial activity against Escherichia coli MG1655 harboring lepB P84L mutant after 24 hrs by CLSI broth microdilution method
- Type: functional
- Run Conditions: MG1655, 24 h
Result Type: MIC

>>> measured_result("CCCCCCCCc1ccc(-c2ccc(C(=O)N(C)[C@H](CO)C(=O)N[C@H](C)C(=O)NCC(=O)N(C)[C@@H]3C(=O)N[C@@H](C)C(=O)N[C@H](C(=O)O)Cc4ccc(O)c(c4)-c4cc3ccc4O)cc2)cc1")
"1 µg/mL"
>>> measured_result("CCCCCCCCCCc1ccc(C(=O)N(C)[C@H](CO)C(=O)N[C@H](C)C(=O)NCC(=O)N(C)[C@@H]2C(=O)N[C@@H](C)C(=O)N[C@H](C(=O)O)Cc3ccc(O)c(c3)-c3cc2ccc3O)cc1")
"2 µg/mL"
>>> measured_result("CCCCCCCCCCCCCCCC(=O)N(C)[C@@H](CO)C(=O)NCC(C)C(=O)NCC(=O)N(C)[C@@H]1C(=O)N[C@@H](C)C(=O)N[C@H](C(=O)O)Cc2ccc(O)c(c2)-c2cc1ccc2O (mixture of isomers)")
"8 µg/mL"
